- System: PC-3
- method notes: Cytotoxicity against human PC3 cells after 5 days by MTT assay
- Assay type: functional
- condition context: PC-3, 120 h
Catalogue of log10 of GI50 values
endpoint label: log10 of GI50 (log10 of the value in µM)

[[record]]
sample_smiles = "O=[N+]([O-])c1ccccc1NS(=O)(=O)c1ccccc1"
endpoint_label = "log10 of GI50"
observed_result = 1.36

[[record]]
sample_smiles = "Cc1ccc(NCc2ccccc2)cc1"
endpoint_label = "log10 of GI50"
observed_result = 1.72

[[record]]
sample_smiles = "Cc1ccc(S(=O)(=O)Nc2ccccc2[N+](=O)[O-])cc1"
endpoint_label = "log10 of GI50"
observed_result = 1.70

[[record]]
sample_smiles = "Cc1ccc(NS(=O)(=O)c2ccccc2)c([N+](=O)[O-])c1"
endpoint_label = "log10 of GI50"
observed_result = 1.78

[[record]]
sample_smiles = "Cc1ccc(NS(=O)(=O)c2ccccc2)cc1"
endpoint_label = "log10 of GI50"
observed_result = 1.14

[[record]]
sample_smiles = "Cc1ccc(CNc2ccc(C)cc2)cc1"
endpoint_label = "log10 of GI50"
observed_result = 1.47

[[record]]
sample_smiles = "Cc1ccc(NS(=O)(=O)c2ccc(F)cc2)c([N+](=O)[O-])c1"
endpoint_label = "log10 of GI50"
observed_result = -0.07

[[record]]
sample_smiles = "Cc1ccc(NS(=O)(=O)c2ccc(C)cc2)cc1"
endpoint_label = "log10 of GI50"
observed_result = 1.48

[[record]]
sample_smiles = "Cc1ccc(N(C)S(=O)(=O)c2ccc(C)cc2)cc1"
endpoint_label = "log10 of GI50"
observed_result = 1.65

[[record]]
sample_smiles = "Cc1ccc(S(=O)(=O)Nc2ccc(C)cc2[N+](=O)[O-])cc1"
endpoint_label = "log10 of GI50"
observed_result = 1.64

[[record]]
sample_smiles = "Cc1ccc(NC(=O)c2ccc(C)cc2)cc1"
endpoint_label = "log10 of GI50"
observed_result = 1.43

[[record]]
sample_smiles = "Cc1ccc(S(=O)(=O)Nc2ccccc2)cc1"
endpoint_label = "log10 of GI50"
observed_result = 1.59

